# maps each entry to its melting temperature
tested on: HeLa Kyoto; assay: melting temperature (median over replicates), in situ; higher = more thermally stable; details: cell cycle stage: mitosis;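 further: HeLa Kyoto cells synchronized by double thymidine or nocodazole block, proteins quantified by TMT10plex mass spectrometry, three independent biological replicates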

{"columns": ["chain", "measurementTarget", "melting temperature, °C"],
 "data": [
  ["MRKPDSKIVLLGDMNVGKTSLLQRYMERRFPDTVSTVGGAFYLKQWRSYNISIWDTAGREQFHGLGSMYCRGAAAIILTYDVNHRQSLVELEDRFLGLTDTASKDCLFAIVGNKVDLTEEGALAGQEKEECSPNMDAGDRVSPRAPKQVQLEDAVALYKKILKYKMLDEQDVPAAEQMCFETSAKTGYNVDLLFETLFDLVVPMILQQRAERPSHTVDISSHKPPKRTRSGCCA [RAB20]", "HeLa Kyoto", 53.8],
  ["MVEADRPGKLFIGGLNTETNEKALEAVFGKYGRIVEVLLMKDRETNKSRGFAFVTFESPADAKDAARDMNGKSLDGKAIKVEQATKPSFESGRRGPPPPPRSRGPPRGLRGGRGGSGGTRGPPSRGGHMDDGGYSMNFNMSSSRGPLPVKRGPPPRSGGPPPKRSAPSGPVRSSSGMGGRAPVSRGRDSYGGPPRREPLPSRRDVYLSPRDDGYSTKDSYSSRDYPSSRDTRDYAPPPRDYTYRDYGHSSSRDDYPSRGYSDRDGYGRDRDYSDHPSGGSYRDSYESYGNSRSAPPTRGPPPSYGGSSRYDDYSSSRDGYGGSRDSYSSSRSDLYSSGRDRVGRQERGLPPSMERGYPPPRDSYSSSSRGAPRGGGRGGSRSDRGGGRSRY [RBMX]", "HeLa Kyoto", 50.5],
  ["MERKISRIHLVSEPSITHFLQVSWEKTLESGFVITLTDGHSAWTGTVSESEISQEADDMAMEKGKYVGELRKALLSGAGPADVYTFNFSKESCYFFFEKNLKDVSFRLGSFNLEKVENPAEVIRELICYCLDTIAENQAKNEHLQKENERLLRDWNDVQGRFEKCVSAKEALETDLYKRFILVLNEKKTKIRSLHNKLLNAAQEREKDIKQEGETAICSEMTADRDPVYDESTDEESENQTDLSGLASAAVSKDDSIISSLDVTDIAPSRKRRQRMQRNLGTEPKMAPQENQLQEKENSRPDSSLPETSKKEHISAENMSLETLRNSSPEDLFDEI [XRCC4]", "HeLa Kyoto", 54.7],
  ["MVFPAKRFCLVPSMEGVRWAFSCGTWLPSRAEWLLAVRSIQPEEKERIGQFVFARDAKAAMAGRLMIRKLVAEKLNIPWNHIRLQRTAKGKPVLAKDSSNPYPNFNFNISHQGDYAVLAAEPELQVGIDIMKTSFPGRGSIPEFFHIMKRKFTNKEWETIRSFKDEWTQLDMFYRNWALKESFIKAIGVGLGFELQRLEFDLSPLNLDIGQVYKETRLFLDGEEEKEWAFEESKIDEHHFVAVALRKPDGSRHQDVPSQDDSKPTQRQFTILNFNDLMSSAVPMTPEDPSFWDCFCFTEEIPIRNGTKS [AASDHPPT]", "HeLa Kyoto", 52.4],
  ["MSRYGRYGGETKVYVGNLGTGAGKGELERAFSYYGPLRTVWIARNPPGFAFVEFEDPRDAEDAVRGLDGKVICGSRVRVELSTGMPRRSRFDRPPARRPFDPNDRCYECGEKGHYAYDCHRYSRRRRSRSRSRSHSRSRGRRYSRSRSRSRGRRSRSASPRRSRSISLRRSRSASLRRSRSGSIKGSRYFQSPSRSRSRSRSISRPRSSRSKSRSPSPKRSRSPSGSPRRSASPERMD [SRSF7]", "HeLa Kyoto", 50.5],
  ["MASEELQKDLEEVKVLLEKATRKRVRDALTAEKSKIETEIKNKMQQKSQKKAELLDNEKPAAVVAPITTGYTVKISNYGWDQSDKFVKIYITLTGVHQVPTENVQVHFTERSFDLLVKNLNGKSYSMIVNNLLKPISVEGSSKKVKTDTVLILCRKKVENTRWDYLTQVEKECKEKEKPSYDTETDPSEGLMNVLKKIYEDGDDDMKRTINKAWVESREKQAKGDTEF [CACYBP]", "HeLa Kyoto", 52.2],
  ["MLVLRSALTRALASRTLAPQMCSSFATGPRQYDGIFYEFRSYYLKPSKMNEFLENFEKNAHLRTAHSELVGYWSVEFGGRMNTVFHIWKYDNFAHRTEVRKALAKDKEWQEQFLIPNLALIDKQESEITYLVPWCKLEKPPKEGVYELATFQMKPGGPALWGDAFKRAVHAHVNLGYTKLVGVFHTEYGALNRVHVLWWNESADSRAAGRHKSHEDPRVVAAVRESVNYLVSQQNMLLIPTSFSPLK [NIPSNAP3A]", "HeLa Kyoto", 57.7],
  ["MENGYTYEDYKNTAEWLLSHTKHRPQVAIICGSGLGGLTDKLTQAQIFDYGEIPNFPRSTVPGHAGRLVFGFLNGRACVMMQGRFHMYEGYPLWKVTFPVRVFHLLGVDTLVVTNAAGGLNPKFEVGDIMLIRDHINLPGFSGQNPLRGPNDERFGDRFPAMSDAYDRTMRQRALSTWKQMGEQRELQEGTYVMVAGPSFETVAECRVLQKLGADAVGMSTVPEVIVARHCGLRVFGFSLITNKVIMDYESLEKANHEEVLAAGKQAAQKLEQFVSILMASIPLPDKAS [PNP]", "HeLa Kyoto", 60.2],
  ["MAQFVRNLVEKTPALVNAAVTYSKPRLATFWYYAKVELVPPTPAEIPRAIQSLKKIVNSAQTGSFKQLTVKEAVLNGLVATEVLMWFYVGEIIGKRGIIGYDV [ATP5L]", "HeLa Kyoto", 52.8],
  ["MAAQSAPKVVLKSTTKMSLNERFTNMLKNKQPTPVNIRASMQQQQQLASARNRRLAQQMENRPSVQAALKLKQSLKQRLGKSNIQARLGRPIGALARGAIGGRGLPIIQRGLPRGGLRGGRATRTLLRGGMSLRGQNLLRGGRAVAPRMGLRRGGVRGRGGPGRGGLGRGAMGRGGIGGRGRGMIGRGRGGFGGRGRGRGRGRGALARPVLTKEQLDNQLDAYMSKTKGHLDAELDAYMAQTDPETND [CHTOP]", "HeLa Kyoto", 51.7],
  ["MIVQRVVLNSRPGKNGNPVAENFRMEEVYLPDNINEGQVQVRTLYLSVDPYMRCRMNEDTGTDYITPWQLSQVVDGGGIGIIEESKHTNLTKGDFVTSFYWPWQTKVILDGNSLEKVDPQLVDGHLSYFLGAIGMPGLTSLIGIQEKGHITAGSNKTMVVSGAAGACGSVAGQIGHFLGCSRVVGICGTHEKCILLTSELGFDAAINYKKDNVAEQLRESCPAGVDVYFDNVGGNISDTVISQMNENSHIILCGQISQYNKDVPYPPPLSPAIEAIQKERNITRERFLVLNYKDKFEPGILQLSQWFKEGKLKIKETVINGLENMGAAFQSMMTGGNIGKQIVCISEEISL [PTGR2]", "HeLa Kyoto", 50.6]
]}
